Please provide measured melting point for the entries that follow.

>>> result("CC1CCN(c2cc(F)cc(C(=O)Nc3ccc(OCCN4CCOCC4)c4ccccc34)c2)CC1")
"116 to 118 °C"
>>> result("O=C(Nc1ccc(Oc2ccnc(NC3CC3)n2)c2ccccc12)c1cc(F)cc(N2CCOCC2)c1")
"118 to 120 °C"
>>> result("O=C(Nc1ccc(OCCc2cccnc2)c2ccccc12)c1cc(F)cc(N2CCOCC2)c1")
"80 to 82 °C"
>>> result("Cc1ncsc1CCOc1ccc(NC(=O)c2cc(F)cc(N3CCCCC3)c2)c2ccccc12")
"221 to 222 °C"
>>> result("O=C(Nc1ccc(OCCCN2CCOCC2)c2ccccc12)c1cc(F)cc(N2CCCCC2)c1")
"70 to 72 °C"
>>> result("CN1CCN(c2nccc(Oc3ccc(NC(=O)c4cc(F)cc(N5CCCCC5)c4)c4ccccc34)n2)CC1")
"182 to 184 °C"
>>> result("O=C(Nc1ccc(Oc2ccnc(NC3CCCCC3)n2)c2ccccc12)c1cc(F)cc(N2CCCCC2)c1")
"118 to 120 °C"
>>> result("O=C(Nc1ccc(Oc2ccnc(NCCN3CCCCC3)n2)c2ccccc12)c1cc(F)cc(N2CCOCC2)c1")
"98 to 100 °C"
>>> result("O=C(Nc1ccc(OCCN2CCOCC2)c2ccccc12)c1cc(F)cc(N2CCCCCC2)c1")
"142 to 144 °C"
>>> result("CN(CC1OCCO1)c1nccc(Oc2ccc(NC(=O)c3cc(F)cc(N4CCCCC4)c3)c3ccccc23)n1")
"125 to 127 °C"

Give melting point for each listed item.
1. O=C(Nc1ccc(Oc2ccnc(NCCN3CCOCC3)n2)c2ccccc12)c1cc(F)cc(N2CCOCC2)c1
2. CCn1c(COc2ccc(NC(=O)c3cc(F)cc(N4CCC(C)CC4)c3)c3ccccc23)n[nH]c1=O
3. O=C(Nc1ccc(OCc2ccncc2)c2ccccc12)c1cc(F)cc(OC2CCOCC2)c1
4. O=C(Nc1ccc(Oc2ccnc(N3CCC4(CC3)OCCO4)n2)c2ccccc12)c1cc(F)cc(N2CCCCC2)c1
5. CC(C)(C)Oc1cccc(C(=O)Nc2ccc(OCCN3CCOCC3)c3ccccc23)c1
6. CSc1nccc(Oc2ccc(NC(=O)c3cc(F)cc(N4CCCC4)c3)c3ccccc23)n1
7. O=C(Nc1ccc(Oc2ccnc(NCC3OCCO3)n2)c2ccccc12)c1cc(F)cc(N2CCCCC2)c1
8. COC(CN(C)c1nccc(Oc2ccc(NC(=O)c3cc(F)cc(N4CCOCC4)c3)c3ccccc23)n1)OC

-- reply
112 to 114 °C
240 to 241 °C
182 to 184 °C
195 to 196 °C
50 to 51 °C
180 to 181 °C
96 to 98 °C
92 to 94 °C

====

Provide the reported log10(IC50) of each item.
- measured-on: p38α (Homo sapiens, UniProt Q16539)
- Construct: p38 MAP Kinases are recombinant human full-length proteins with an amino-terminal GST fusion; GST (N)
- Sequence (Q16539 whole entry, the tested form may be a part): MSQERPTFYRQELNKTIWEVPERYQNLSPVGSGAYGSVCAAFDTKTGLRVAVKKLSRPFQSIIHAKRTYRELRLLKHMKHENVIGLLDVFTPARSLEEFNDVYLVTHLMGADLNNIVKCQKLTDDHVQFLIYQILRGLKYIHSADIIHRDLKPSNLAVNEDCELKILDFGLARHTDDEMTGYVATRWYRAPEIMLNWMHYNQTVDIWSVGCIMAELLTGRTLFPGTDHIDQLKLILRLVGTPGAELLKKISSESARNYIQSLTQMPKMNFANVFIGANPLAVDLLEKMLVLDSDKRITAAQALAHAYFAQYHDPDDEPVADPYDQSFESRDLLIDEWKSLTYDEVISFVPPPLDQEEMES
- protocol-text: p38 MAP Kinase assay: inhibition of ATF2 phosphorylation, ELISA
- experimental-conditions: ATF2 phosphorylation; read-out: [ENZ] P38 ALPHA, IC50, ELISA
Values below are the log10 of the recorded IC50, with nM as the unit.

Below are worked cases with known answers.
>>> result_number("O=C(Nc1ccc(Oc2ccnc(N3CCC4(CC3)OCCO4)n2)c2ccccc12)c1cc(F)cc(N2CCOCC2)c1")
0.85
>>> result_number("O=C(Nc1ccc(OCCN2CCSCC2)c2ccccc12)c1cccc(N2CCOCC2)c1")
3.74

Return reported log10(IC50) values for all items listed beneath this line.
1. CN(CC1OCCO1)c1nccc(Oc2ccc(NC(=O)c3cc(F)cc(N4CCOCC4)c3)c3ccccc23)n1
2. Cc1cccc(-c2cccc(C(=O)Nc3ccc(OCCN4CCOCC4)c4ccccc34)c2)c1
3. C[C@@H]1CN(CCOc2ccc(NC(=O)c3cccc(N4CCOCC4)c3)c3ccccc23)C[C@H](C)O1

-- reply
1. 1.27
2. 2.98
3. 3.95

Parameter requested: log10(IC50). Apply to each item below.
1. CCOC(=O)N1CCC(Nc2nccc(Oc3ccc(NC(=O)c4cc(F)cc(N5CCCCC5)c4)c4ccccc34)n2)CC1
2. Cc1cc(C(=O)Nc2ccc(OCCN3CCOCC3)c3ccccc23)cc(N2CCCC(C)C2)n1 (stereo not drawn)
3. O=C(Nc1ccc(OCCN2CCOCC2)c2ccccc12)c1cccc(-c2ccccc2)c1
4. O=C(Nc1ccc(Oc2ccnc(NCCN3CCCC3)n2)c2ccccc12)c1cc(F)cc(N2CCOCC2)c1
5. CCn1c(COc2ccc(NC(=O)c3cc(F)cc(N4CCOCC4)c3)c3ccccc23)n[nH]c1=O
6. CN1CCC(Nc2nccc(Oc3ccc(NC(=O)c4cc(F)cc(N5CCCCC5)c4)c4ccccc34)n2)CC1
7. CC1CCC(Nc2nccc(Oc3ccc(NC(=O)c4cc(F)cc(N5CCOCC5)c4)c4ccccc34)n2)CC1 (stereo not drawn)
8. CC1CCN(c2cc(F)cc(C(=O)Nc3ccc(OCc4n[nH]c(=O)n4-c4ccccc4)c4ccccc34)c2)CC1

-- reply
[1.41, 2.79, 2.65, 1.23, 2.76, 0.26, 1.52, 3.71]

Provide the reported log10(IC50) of each entry below, same order.
1. CC1CCN(c2cc(F)cc(C(=O)Nc3ccc(Oc4ccnc(N5CCOCC5)n4)c4ccccc34)c2)CC1
2. CC1CCN(c2cc(F)cc(C(=O)Nc3ccc(OCc4nn[nH]n4)c4ccccc34)c2)CC1
3. CN(Cc1ccco1)c1nccc(Oc2ccc(NC(=O)c3cc(F)cc(N4CCCCC4)c3)c3ccccc23)n1
4. O=C(Nc1ccc(OCCN2CCCC2=O)c2ccccc12)c1cc(F)cc(N2CCOCC2)c1
5. CSc1cccc(-c2cccc(C(=O)Nc3ccc(OCCN4CCOCC4)c4ccccc34)c2)c1

-- reply
1. 3.70
2. 3.58
3. 2.01
4. 3.82
5. 3.87

====

- measured-on: p38α (Homo sapiens, UniProt Q16539)
- Construct: p38 MAP Kinases are recombinant human full-length proteins with an amino-terminal GST fusion; GST (N)
- protocol-text: p38 MAP Kinase assay: inhibition of ATF2 phosphorylation, ELISA
- experimental-conditions: ATF2 phosphorylation; read-out: [ENZ] P38 ALPHA, IC50, ELISA
Hi! Could you tag entries with IC50 below 20 nM as t, and those at or above as f? Much appreciated.

Below, 5 compounds whose answers are already recorded.
>>> class_label("O=C(Nc1ccc(OCCN2CCOCC2)c2ccccc12)c1cc(F)cc(N2CCCCCC2)c1 [Compound B67]")
"f"
>>> class_label("O=C(Nc1ccc(Oc2ccnc(N3CCC(O)CC3)n2)c2ccccc12)c1cc(F)cc(N2CCCCC2)c1 [Compound B387]")
"t"
>>> class_label("O=C(Nc1ccc(Oc2ccnc(NC3CC3)n2)c2ccccc12)c1cc(F)cc(N2CCCCC2)c1 [Compound B382]")
"t"
>>> class_label("O=C(Nc1ccc(OCCN2CCOCC2)c2ccccc12)c1cccc(N2CCCCCCC2)n1 [Compound B135]")
"f"
>>> class_label("N#Cc1ccc(-c2cccc(C(=O)Nc3ccc(OCCN4CCOCC4)c4ccccc34)c2)cc1 [Compound B285]")
"f"

-- ask I'd appreciate it if you could check whether O=C(Nc1ccc(OCCN2CCOCC2)c2ccccc12)c1cc(F)cc(F)c1 [Compound B204] has IC50 smaller than 20 nM.
-- reply f

-- ask Record COc1nccc(Oc2ccc(NC(=O)c3cc(F)cc(N4CCOCC4)c3)c3ccccc23)n1 [Compound B267] : is its IC50 strictly below 20 nM?
-- reply f

-- ask Determine if COc1ccc(-c2cccc(C(=O)Nc3ccc(OCCN4CCOCC4)c4ccccc34)c2)cc1 [Compound B284] shows IC50 strictly lower than 20 nM.
-- reply f

-- ask Determine whether this compound shows IC50 lower than 20 nM (ties excluded): CN1CCCC1CCNc1nccc(Oc2ccc(NC(=O)c3cc(F)cc(N4CCCCC4)c3)c3ccccc23)n1 (stereo not drawn) [Compound B394]
-- reply t

-- ask For O=C1CN(c2nccc(Oc3ccc(NC(=O)c4cc(F)cc(N5CCCCC5)c4)c4ccccc34)n2)CCN1 [Compound B421] , is the recorded IC50 below the cut-off of 20 nM?
-- reply t

-- ask Strictly below 20 nM in IC50? COc1cccc(OC)c1-c1cccc(C(=O)Nc2ccc(OCCN3CCOCC3)c3ccccc23)c1 [Compound B108]
-- reply f

-- ask Hi there! Is IC50 for O=C(Nc1ccc(OCCN2CCOCC2)c2ccccc12)c1cc(F)cc(OC2CCCC2)c1 [Compound B225] below 20 nM, do you know?
-- reply f

-- ask Check if IC50 falls below 20 nM for CCOC(=O)N1CCC(Nc2nccc(Oc3ccc(NC(=O)c4cc(F)cc(N5CCOCC5)c4)c4ccccc34)n2)CC1 [Compound B341] .
-- reply t

-- ask Is IC50 strictly under 20 nM for the entry COc1cc(-c2cccc(C(=O)Nc3ccc(OCCN4CCOCC4)c4ccccc34)c2)cc(OC)c1OC [Compound B112] ?
-- reply f

-- ask Report whether reported IC50 is lower than 20 nM (strictly) for Cc1cc(C(=O)Nc2ccc(OCCN3CCOCC3)c3ccccc23)cc(N2CCCC2c2ccccc2Cl)n1 (stereo not drawn) [Compound B156]
-- reply f
